Tested on: EC882 E. coli imp
Assay: broth dilution MIC, E. coli EC882
Assay type: cell-based
Conditions: Escherichia coli
Please provide measured MIC for the entries that follow.
Give bare numbers, in µg/mL.

The examples below pair each entry with its known result.
{"columns": ["COMPOUND", "VALUE MEASURED"],
 "data": [
  ["CC[C@H]1OC(=O)C(C)C(=O)[C@@H](C)[C@@H](O[C@@H]2OC(C)CC(N(C)C)C2O)[C@](C)(OC)C[C@@H](C)CN[C@H](C)[C@H]2N(CCCCn3cc(-c4ccccn4)nn3)C(=O)O[C@]12C (stereo partly shown)", 0.125],
  ["CC[C@H]1OC(=O)C(C)(F)C(=O)[C@H](C)[C@@H](O[C@@H]2OC(C)CC(N(C)C)C2O)[C@](C)(OC)C[C@@H](C)CN[C@H](C)[C@H]2N(CCCCn3cc(-c4ccccn4)nn3)C(=O)O[C@]12C (stereo partly shown)", 0.0625]
]}

Input: Indicate the recorded MIC value for this compound: CC[C@H]1OC(=O)[C@H](C)C(=O)[C@H](C)[C@@H](O[C@@H]2OC(C)CC(N(C)C)C2O)[C@](C)(OC)C[C@@H](C)CN[C@H](C)[C@H]2N(CCCCn3cc(-c4cccnn4)nn3)C(=O)O[C@]12C (stereo partly shown)
Output: 0.0625

====

System: A. baumannii strains
Assay: MIC against A. baumannii strains (Table M8)
Format: cell-based
Conditions: A. baumannii BAA747-1
Answer each item with its documented MIC A. baumannii (BAA747-1).

Example entries and their recorded answers appear below.
{"columns": ["MOLECULE", "VALUE MEASURED"],
 "data": [
  ["CC[C@H]1OC(=O)[C@H](C)[C@@H](O[C@H]2C[C@@](C)(OC)[C@@H](O)[C@H](C)O2)[C@H](C)[C@@H](O[C@@H]2O[C@H](C)C[C@H](N(C)C)[C@H]2O)[C@](C)(O)C[C@@H](C)C(=O)[C@H](C)[C@@H](O)[C@]1(C)O [Erythromycin, erythromycin, reference compound]", ">32 µg/mL"],
  ["CCC1OC(=O)C(Cc2cn[nH]c2)C(=O)C(C)C(OC2OC(C)CC(N(C)C)C2O)C(C)(OCC=Cc2cnc3ccccc3c2)CC(C)CNC(C)C2NC(=O)OC12C (mixture of isomers) [FSM-21264]", ">32 µg/mL"]
]}

// for each molecule below, give its MIC A. baumannii (BAA747-1)
1. C=CC[C@@]1(OC)C[C@@H](C)CN[C@H](C)[C@H]2N(CCCCn3cc(-c4cccc(N)c4)nn3)C(=O)O[C@]2(C)[C@@H](CC)OC(=O)[C@H](C)C(=O)[C@@H](C)[C@H]1O[C@@H]1OC(C)CC(N(C)C)C1O (stereo in doubt) [FSM-21368]
2. CC[C@H]1OC(=O)[C@H](C)C(=O)[C@H](C)[C@@H](O[C@@H]2OC(C)CC(N(C)C)C2O)[C@](C)(OC)CC(C)N[C@H](C)[C@H]2N(CCCCn3cc(-c4cccc(N)c4)nn3)C(=O)O[C@]12C (stereo partly shown) [FSM-30690]

Output:
16 µg/mL
>32 µg/mL

====

System: BS1725 B. subtilis ermC
Assay: broth dilution MIC, B. subtilis BS1725
Type: cell-based
Conditions: Bacillus subtilis, BS1725 B. subtilis ermC (+ery)
Please go through the items and note down their MIC.
One number for each entry, in µg/mL.

Worked set:
{"columns": ["COMPOUND", "EXPERIMENTAL SYSTEM", "MIC [µg/mL]"],
 "data": [
  ["CC[C@H]1OC(=O)[C@H](C)C(=O)[C@H](C)[C@@H](O[C@@H]2OC(C)CC(N(C)C)C2O)[C@](C)(OC)C[C@@H](C)CN[C@H](C)[C@H]2N(CCCCn3cc(-c4cccc(N)n4)nn3)C(=O)O[C@]12C (stereo partly shown) [FSM-20715]", "BS1725 B. subtilis ermC", 16],
  ["CC[C@H]1OC(=O)[C@H](C)C(=O)[C@H](C)[C@@H](O[C@@H]2OC(C)CC(N(C)C)C2O)[C@](C)(OC)C[C@@H](C)CN[C@H](C)[C@H]2N(CCCCn3cc(-c4nccs4)nn3)C(=O)O[C@]12C (stereo partly shown) [FSM-20708]", "BS1725 B. subtilis ermC", 16]
]}

Pending compound:
Input: Using the record for CC[C@H]1OC(=O)C(C)(F)C(=O)[C@H](C)[C@@H](O[C@@H]2OC(C)CC(N(C)C)C2O)[C@](C)(OC)C[C@@H](C)CN[C@H](C)[C@H]2N(CCCCn3cc(-c4ccccn4)nn3)C(=O)O[C@]12C (stereo partly shown) [FSM-20738] , state its measured MIC.
Output: 4

====

Test system: Spn 106 S. pneumonia ATCC49619
Assay: broth dilution MIC, S. pneumoniae Spn 106
Assay type: cell-based
Details: Streptococcus pneumoniae; Spn 106 S. pneumonia ATCC49619; read-out: MIC
VALUE TYPE: MIC

{"columns": ["COMPOUND", "VALUE TYPE", "VALUE MEASURED"],
 "data": [
  ["CC[C@H]1OC(=O)C(C)(F)C(=O)[C@@H](C)[C@@H](O[C@@H]2OC(C)CC(N(C)C)C2O)[C@](C)(OC)C[C@@H](C)CN[C@H](C)[C@H]2N(CCCCn3cc(-c4ccccn4)nn3)C(=O)O[C@]12C (stereo partly shown) [FSM-20716]", "MIC", "0.25 µg/mL"],
  ["CC[C@H]1OC(=O)C(C)(F)C(=O)[C@@H](C)[C@@H](O[C@@H]2OC(C)CC(N(C)C)C2O)[C@](C)(OC)C[C@@H](C)CN(C)[C@H](C)[C@H]2N(CCCCn3cc(-c4nccs4)nn3)C(=O)O[C@]12C (stereo partly shown) [FSM-20705]", "MIC", "0.125 to 0.25 µg/mL"],
  ["CC[C@H]1OC(=O)C(C)(F)C(=O)[C@@H](C)[C@@H](O[C@@H]2OC(C)CC(N(C)C)C2O)[C@](C)(OC)C[C@@H](C)CN[C@H](C)[C@H]2N(CCCCn3cc(-c4nccs4)nn3)C(=O)O[C@]12C (stereo partly shown) [FSM-20721]", "MIC", "0.125 to 0.25 µg/mL"],
  ["CC[C@H]1OC(=O)[C@H](C)C(=O)[C@H](C)[C@@H](O[C@@H]2OC(C)CC(N(C)C)C2O)[C@](C)(OC)C[C@@H](C)CN[C@H](C)[C@H]2N(CCCCn3cc(-c4cccc(N)c4)nn3)C(=O)O[C@]12C (stereo partly shown) [FSM-20707]", "MIC", "0.0156 to 0.0312 µg/mL"],
  ["CC[C@H]1OC(=O)C(C)(F)C(=O)[C@H](C)[C@@H](O[C@@H]2OC(C)CC(N(C)C)C2O)[C@](C)(OC)C[C@@H](C)CN[C@H](C)[C@H]2N(CCCCn3cc(-c4ccccn4)nn3)C(=O)O[C@]12C (stereo partly shown) [FSM-20738]", "MIC", "0.0156 to 0.25 µg/mL"]
]}

Hello, I would appreciate it if you could give MIC for each entry below.
1. CC[C@H]1OC(=O)[C@H](C)C(=O)C[C@@H](O[C@@H]2OC(C)CC(N(C)C)C2O)[C@](C)(OC)C[C@@H](C)C(=O)N[C@H](C)[C@H]2N(CCCCn3cc(-c4ccccn4)nn3)C(=O)O[C@]12C (stereo partly shown) [FSM-20739]
2. CCC[C@@H]1C[C@@H](C(=O)N[C@@H]([C@H]2O[C@H](SC)[C@H](O)[C@@H](O)[C@H]2O)[C@H](C)Cl)N(C)C1 [Clindamycin, clindamycin, reference compound]
3. CC[C@H]1OC(=O)C(C)(F)C(=O)[C@H](C)[C@@H](O[C@@H]2OC(C)CC(N(C)C)C2O)[C@](C)(OC)C[C@@H](C)CN[C@H](C)[C@H]2N(CCCCn3cc(-c4cccc(N)c4)nn3)C(=O)O[C@]12C (stereo partly shown) [FSM-20795]
4. CC[C@H]1OC(=O)[C@H](C)C(=O)[C@H](C)[C@@H](O[C@@H]2OC(C)CC(N(C)C)C2O)[C@](C)(OC)C[C@@H](C)CN[C@H](C)[C@H]2N(CCCCn3cc(-c4ccccn4)nn3)C(=O)O[C@]12C (stereo partly shown) [FSM-20706]
5. CC[C@H]1OC(=O)[C@H](C)C(=O)[C@H](C)[C@@H](O[C@@H]2OC(C)CC(N(C)C)C2O)[C@](C)(OC)C[C@@H](C)C(=O)N[C@H](C)[C@H]2N(CCCCn3cc(-c4ccccn4)nn3)C(=O)O[C@]12C (stereo partly shown) [FSM-20781]
6. CC[C@H]1OC(=O)C(C)(F)C(=O)[C@H](C)[C@@H](O[C@@H]2OC(C)CC(N(C)C)C2O)[C@](C)(OC)C[C@@H](C)CN(C)[C@H](C)[C@H]2N(CCCCn3cc(-c4cccc(N)c4)nn3)C(=O)O[C@]12C (stereo partly shown) [FSM-20797]
7. CC[C@H]1OC(=O)C(C)(F)C(=O)[C@@H](C)[C@@H](O[C@@H]2OC(C)CC(N(C)C)C2O)[C@](C)(OC)C[C@@H](C)CN[C@H](C)[C@H]2N(CCCCn3cc(-c4cccc(N)c4)nn3)C(=O)O[C@]12C (stereo partly shown) [FSM-20720]
8. CC[C@H]1OC(=O)C(C)(F)C(=O)[C@@H](C)[C@@H](O[C@@H]2OC(C)CC(N(C)C)C2O)[C@](C)(OC)C[C@@H](C)CN[C@H](C)[C@H]2N(CCCCn3cc(-c4cccc(N)n4)nn3)C(=O)O[C@]12C (stereo partly shown) [FSM-20718]

Output:
["32 µg/mL", "0.0312 µg/mL", "≤ 0.0156 µg/mL", "0.0156 to 0.0312 µg/mL", "8 µg/mL", "≤ 0.0156 µg/mL", "0.125 µg/mL", "0.0156 to 0.25 µg/mL"]
